molecular target: D816V Kit (Homo sapiens (Human), UniProt P10721, D816V); experiment: Kit D816V assay at Km (Caliper electrophoretic mobility shift); format: biochemical; conditions: D816V Kit 0.5 nM, 15 uM ATP (Km), 1 uM Srctide, 25 C, 90 minutes; read-out: INH-KITD816V ENZ-KM IC50 (nM) (Num)
Sequence (P10721 26-976 D816V): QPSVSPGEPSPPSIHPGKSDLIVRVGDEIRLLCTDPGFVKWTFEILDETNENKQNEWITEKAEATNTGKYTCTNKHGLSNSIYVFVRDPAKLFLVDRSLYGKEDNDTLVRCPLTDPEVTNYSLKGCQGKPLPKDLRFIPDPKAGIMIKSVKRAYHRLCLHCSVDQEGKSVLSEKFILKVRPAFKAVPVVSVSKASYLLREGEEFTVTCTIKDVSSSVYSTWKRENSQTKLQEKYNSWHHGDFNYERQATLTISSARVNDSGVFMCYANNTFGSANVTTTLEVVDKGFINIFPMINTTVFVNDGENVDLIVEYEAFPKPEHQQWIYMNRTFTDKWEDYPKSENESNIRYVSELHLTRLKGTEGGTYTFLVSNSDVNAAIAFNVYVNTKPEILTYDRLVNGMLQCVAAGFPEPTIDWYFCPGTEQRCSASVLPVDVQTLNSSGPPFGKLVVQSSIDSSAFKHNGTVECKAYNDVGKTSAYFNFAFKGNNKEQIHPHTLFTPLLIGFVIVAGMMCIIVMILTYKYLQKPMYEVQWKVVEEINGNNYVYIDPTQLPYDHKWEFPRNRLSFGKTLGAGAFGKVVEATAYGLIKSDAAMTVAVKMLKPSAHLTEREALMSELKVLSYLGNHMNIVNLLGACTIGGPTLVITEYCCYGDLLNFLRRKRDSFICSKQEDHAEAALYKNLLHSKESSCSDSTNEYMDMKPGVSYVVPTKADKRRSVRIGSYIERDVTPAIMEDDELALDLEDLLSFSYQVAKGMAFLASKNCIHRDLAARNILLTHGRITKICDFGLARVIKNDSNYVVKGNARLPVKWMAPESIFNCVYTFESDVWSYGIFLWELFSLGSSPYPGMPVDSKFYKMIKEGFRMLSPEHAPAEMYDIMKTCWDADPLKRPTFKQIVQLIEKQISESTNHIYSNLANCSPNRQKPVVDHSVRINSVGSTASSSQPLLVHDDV
IC50 for assorted molecules

COc1ccc(Cc2cnc(N3CCN(c4ncnc5cc(OC)c(OC)cc45)CC3)nc2)cc1 | 1.01 to 10 nM
COc1cc2ncnc(N3CCN(c4ncc(-c5ccc(C#N)cc5)cn4)CC3)c2cc1OC | > 100 nM
COc1cc2ncnc(N3CCN(c4ncc(Cc5ccccc5)cn4)CC3)c2cc1OC1CCN(CCO)CC1 | 1.01 to 10 nM
COc1cc2ncnc(N3CCN(c4ncc(Cc5ccccc5)cn4)CC3)c2cc1OCC1CCNC1 (centres unmarked) | < 1 nM

Query: Entry COc1cc2ncnc(N3CCN(c4ncc(Nc5ccccc5C)cn4)CC3)c2cc1OC needs its IC50 filled in; supply it.
Response: 10 to 100 nM

Query: Entry COc1cc2ncnc(N3CCN(c4ncc(Cc5ccccc5)cn4)CC3)c2cc1OCC1CCCN(C)C1 (centres unmarked) needs its IC50 filled in; supply it.
Response: < 1 nM

Query: Entry COc1cc2ncnc(N3CCN(c4ncc(O[C@H](C)c5ccccc5)cn4)CC3)c2cc1OC needs its IC50 filled in; supply it.
Response: 1.01 to 10 nM

Query: Entry COc1cc2ncnc(N3CCN(c4ncc(Oc5ccccc5)cn4)CC3)c2cc1OC needs its IC50 filled in; supply it.
Response: 1.01 to 10 nM

Query: Entry COc1cc2ncnc(N3CCN(c4ncc(Cc5ccccc5)cn4)CC3)c2cc1OCC1CNCCO1 (centres unmarked) needs its IC50 filled in; supply it.
Response: < 1 nM

Query: Entry COc1ccc2c(N3CCN(c4ncc(OCc5ccccc5)cn4)CC3)ncnc2c1 needs its IC50 filled in; supply it.
Response: 10 to 100 nM

Query: Entry COc1cc2ncnc(N3CCN(c4ncc(Nc5ccc(F)c(F)c5)cn4)CC3)c2cc1OC needs its IC50 filled in; supply it.
Response: 1.01 to 10 nM

Query: Entry COc1cc2ncnc(N3CCN(c4ncc(Cc5ccccc5)cn4)CC3)c2cc1C(N)=O needs its IC50 filled in; supply it.
Response: 10 to 100 nM

Query: Entry COc1cc2ncnc(N3CCN(c4ncc(OCc5ccc(C(F)(F)F)cc5)cn4)CC3)c2cc1OC needs its IC50 filled in; supply it.
Response: > 100 nM

Query: Entry COc1ccc2ncnc(N3CCN(c4ncc(Cc5ccccc5)cn4)[C@H](C)C3)c2c1 needs its IC50 filled in; supply it.
Response: 10 to 100 nM

###

biological target: UniProt P10721; assay: Kit wild type assay at Km (Caliper electrophoretic mobility shift); format: biochemical; settings: wild type Kit 2 nM, 400 uM ATP (Km), 1 uM Srctide, 25 C, 90 minutes; read-out: INH-KITWT ENZ-KM IC50 (nM) (Num)
IC50 for assorted compounds

CN1CCC(COc2ccc3ncnc(N4CCN(c5ncc(Cc6ccccc6)c(N)n5)CC4)c3c2)CC1 | 11 to 100 nM
COc1cc2ncnc(N3CCN(c4ncc(NCc5ccc(C)cc5)cn4)CC3)c2cc1OC | 100 to 1000 nM
COc1cc2ncnc(N3CCN(c4ncc(Cc5ccccc5)cn4)CC3)c2cc1OC[C@@H]1CNCCO1 | 11 to 100 nM
COc1cc2ncnc(N3CCN(c4ncc(Nc5ccc(Cl)cc5)cn4)CC3)c2cc1OC | 100 to 1000 nM
COc1cc2ncnc(N3CCN(c4ncc(Cc5ccccc5)cn4)C(C)C3)c2cc1OC (stereo not shown) [Compound 26] | 100 to 1000 nM

Query: Entry COc1cc2ncnc(N3CCN(c4ncc(OCc5ccccc5)cn4)C[C@H]3C)c2cc1OC needs its IC50 filled in; supply it.
Response: > 1000 nM

Query: Entry COc1cc2ncnc(N3CCN(c4ncc(-c5ccc(C#N)cc5)cn4)CC3)c2cc1OC needs its IC50 filled in; supply it.
Response: > 1000 nM

Query: Entry COc1cc2ncnc(N3CCN(c4ncc(Cc5ccc(C#N)cc5)cn4)CC3)c2cc1OC needs its IC50 filled in; supply it.
Response: 100 to 1000 nM

Query: Entry COc1cc2ncnc(N3CCN(c4ncc(Cc5ccccc5)cn4)CC3)c2cc1OCC1CNC1 needs its IC50 filled in; supply it.
Response: 11 to 100 nM

Query: Entry COc1cc2ncnc(N3CCN(c4ncc(OCc5ccccc5)cn4)C(C)C3)c2cc1OC (stereo not shown) needs its IC50 filled in; supply it.
Response: > 1000 nM

Query: Entry COc1cc2ncnc(N3CCN(c4ncc(Cc5cccc(F)c5)cn4)CC3)c2cc1OC needs its IC50 filled in; supply it.
Response: 100 to 1000 nM

Query: Entry c1ccc(Cc2cnc(N3CCN(c4ncnc5c4CN(CC4CCNCC4)C5)CC3)nc2)cc1 needs its IC50 filled in; supply it.
Response: > 1000 nM

###

target: wild type Kit (Homo sapiens (Human), UniProt P10721); assay: Kit wild type assay at Km (Caliper electrophoretic mobility shift); assay type: biochemical; conditions: wild type Kit 2 nM, 400 uM ATP (Km), 1 uM Srctide, 25 C, 90 minutes; read-out: INH-KITWT ENZ-KM IC50 (nM) (Num)
Sequence (P10721 26-976): as the sequence (P10721 26-976 D816V) above, with V791D counted along it
testReadout: IC50

COc1cc2ncnc(N3CCN(c4ncc(Nc5cccc(C)c5)cn4)CC3)c2cc1OC | 100 to 1000 nM

Query: Entry COc1cc2ncnc(N3CCN(c4ncc(COc5ccccc5)cn4)CC3)c2cc1OC needs its IC50 filled in; supply it.
Response: 11 to 100 nM

Query: Entry COc1cc2ncnc(N3CCN(c4ncc(Sc5ccc(F)cc5)cn4)CC3)c2cc1OCC1CCN(C)CC1 needs its IC50 filled in; supply it.
Response: 11 to 100 nM

Query: Entry COc1cc2ncnc(N3CCN(c4ncc(Cc5ccccc5)cn4)CC3)c2cc1OC[C@@H]1CCCN(C)C1 needs its IC50 filled in; supply it.
Response: 11 to 100 nM

###

Biological target: D816V Kit (Homo sapiens (Human), UniProt P10721, D816V)
Assay: Kit D816V assay at Km (Caliper electrophoretic mobility shift)
Type: biochemical
Conditions: D816V Kit 0.5 nM, 15 uM ATP (Km), 1 uM Srctide, 25 C, 90 minutes; read-out: INH-KITD816V ENZ-KM IC50 (nM) (Num)
Source text: In order to assess the activity of chemical compounds against the relevant kinase of interest, the Caliper LifeSciences electrophoretic mobility shift technology platform is used. […] At the end of the reaction, the mix of phosphorylated (product) and non-phosphorylated (substrate) peptides are passed through the microfluidic system of the Caliper EZ Reader 2, under an applied potential difference. […] As the pools pass a LEDS within the instrument, these pools are detected and resolved as separate peaks. […]
IC50 for assorted compounds

Known IC50 results, listed for orientation:
COc1cc2ncnc(N3CCN(c4ncc(N5CCc6ccccc65)cn4)CC3)c2cc1OC | 10 to 100 nM
COc1cc2ncnc(N3CCN(c4ncc(Nc5ccc(F)cc5)cn4)CC3)c2cc1OC | 1.01 to 10 nM
COc1cc2ncnc(N3CCN(c4ncc(Cc5ccccc5)c(O)n4)CC3)c2cc1OC | < 1 nM
COc1cc2ncnc(N3CCN(c4ncc(OCc5ccc(C#N)cc5)cn4)CC3)c2cc1OC | > 100 nM
COc1cc2ncnc(N3CCN(c4ncc(OCC5CCCC5)cn4)CC3)c2cc1OC | > 100 nM

Query: Entry COc1cccc(Cc2cnc(N3CCN(c4ncnc5cc(OC)c(OC)cc45)CC3)nc2)c1 needs its IC50 filled in; supply it.
Response: < 1 nM

Query: Entry COc1cc2ncnc(N3CCN(c4ncc(Cc5ccc(C)cc5)cn4)C(=O)C3)c2cc1OC needs its IC50 filled in; supply it.
Response: 1.01 to 10 nM

Query: Entry COc1ccc(COc2cnc(N3CCN(c4ncnc5cc(OC)c(OC)cc45)CC3)nc2)cc1 needs its IC50 filled in; supply it.
Response: 10 to 100 nM

Query: Entry COc1cc2ncnc(N3CCN(c4ncc(Nc5ccc(F)cc5)cn4)CC3)c2cc1OCC1CCN(C)CC1 needs its IC50 filled in; supply it.
Response: 1.01 to 10 nM

Query: Entry COc1cc2ncnc(N3CCN(c4ncc(NCc5ccccc5)cn4)CC3)c2cc1OC needs its IC50 filled in; supply it.
Response: 10 to 100 nM

Query: Entry COc1cc2ncnc(N3CCN(c4ncc(Cc5ccccc5)cn4)CC3)c2cc1OC1CCN(C)CC1 needs its IC50 filled in; supply it.
Response: 1.01 to 10 nM

Query: Entry COc1cc2ncnc(N3CCN(c4ncc(OCc5ccc(F)cc5)cn4)CC3)c2cc1OC needs its IC50 filled in; supply it.
Response: 10 to 100 nM

Query: Entry COc1cc2c(N3CCN(c4ncc(Nc5ccc(C)cc5)cn4)CC3)ncnc2cc1OCCCN1CCCCC1 needs its IC50 filled in; supply it.
Response: 1.01 to 10 nM

Query: Entry COc1cc2ncnc(N3CCN(c4ncc(Oc5ccc(F)cc5)cn4)CC3)c2cc1OCC1CCN(C)CC1 needs its IC50 filled in; supply it.
Response: 1.01 to 10 nM

Query: Entry COc1cc2ncnc(N3CCN(c4ncc(Nc5ccc(C#N)cc5)cn4)CC3)c2cc1OC needs its IC50 filled in; supply it.
Response: 10 to 100 nM

Query: Entry c1ccc(Cc2cnc(N3CCN(c4ncnc5c4CN(CC4CCNCC4)C5)CC3)nc2)cc1 needs its IC50 filled in; supply it.
Response: > 100 nM

Query: Entry COc1cc2ncnc(N3CCN(c4ncc(Nc5ccc(C)cc5)cn4)CC3)c2cc1OC needs its IC50 filled in; supply it.
Response: 1.01 to 10 nM

Query: Entry COc1cc2ncnc(N3CCN(c4ncc(OC(C)c5ccccc5)cn4)CC3)c2cc1OC (centres unmarked) needs its IC50 filled in; supply it.
Response: 10 to 100 nM

Query: Entry COc1cc2ncnc(N3CCN(c4ncc(NCc5cccc(C)c5)cn4)CC3)c2cc1OC needs its IC50 filled in; supply it.
Response: 10 to 100 nM

FYI, the data here is from patent US9994552B2.
